Reference source: patent US8461328B2

Tested On: JAK1 (Homo sapiens, UniProt P23458)
Construct: made in house; host or cells: SF9 insect cells (baculovirus)
Sequence (P23458 852-1154): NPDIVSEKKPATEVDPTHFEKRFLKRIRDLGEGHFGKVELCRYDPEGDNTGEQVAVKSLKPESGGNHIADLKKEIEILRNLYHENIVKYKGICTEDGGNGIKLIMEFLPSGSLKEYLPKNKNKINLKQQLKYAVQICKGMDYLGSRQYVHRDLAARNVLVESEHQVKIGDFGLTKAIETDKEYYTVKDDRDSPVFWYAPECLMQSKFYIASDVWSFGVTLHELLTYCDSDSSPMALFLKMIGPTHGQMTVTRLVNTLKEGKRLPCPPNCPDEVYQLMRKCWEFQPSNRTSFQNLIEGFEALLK
Assay Procedure: JAK1 inhibition (Table 4)
Format: biochemical
Reported Conditions: read-out: JAK1 Ki
pKi: −log10 of the molar value.
Entry flag: TRUE if pKi reaches 8; FALSE if it does not.

OCc1nc2cnc3[nH]ccc3c2n1C1CCNCC1(F)F (racemic)    TRUE
CC(O)c1nc2cnc3[nH]ccc3c2n1C1CC2CCC1O2 (stereo not drawn) [Example 848]    FALSE
Cc1nn(C)cc1S(=O)(=O)N1CCC(n2cnc3cnc4[nH]ccc4c32)CC1    FALSE

Does the reported pKi for `C[C@@H](O)c1nc2cnc3[nH]ccc3c2n1[C@H]1CC[C@@H](NCC(F)(F)F)C1` fall at or above the 8 mark?
TRUE

Does the reported pKi for O=C(Cc1nc2cnc3[nH]ccc3c2n1C1CCCOC1)NC1CCC(F)(F)CC1 (racemic) fall at or above the 8 mark?
FALSE

---

Tested On: JAK2 (Homo sapiens, UniProt O60674)
Construct: made in house; host or cells: SF9 insect cells (baculovirus)
Sequence (O60674 812-1132): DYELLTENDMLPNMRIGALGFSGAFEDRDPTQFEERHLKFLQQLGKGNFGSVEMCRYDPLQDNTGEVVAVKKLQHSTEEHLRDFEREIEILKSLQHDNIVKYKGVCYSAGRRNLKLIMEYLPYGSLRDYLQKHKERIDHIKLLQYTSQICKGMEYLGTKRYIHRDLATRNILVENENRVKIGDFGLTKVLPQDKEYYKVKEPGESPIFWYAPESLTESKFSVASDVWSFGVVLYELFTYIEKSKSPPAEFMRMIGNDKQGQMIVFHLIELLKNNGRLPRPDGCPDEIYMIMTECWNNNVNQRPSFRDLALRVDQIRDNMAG
Assay Procedure: JAK2 inhibition (Table 4)
Type: biochemical
Reported Conditions: read-out: JAK2 Ki
pKi: −log10 of the molar value.
Entry flag: yes (1) if pKi reaches 7; no (0) if it does not.

N#CCCn1cc2c(n1)CCC(n1cnc3cnc4[nH]ccc4c31)C2 (racemic) [Example 991]    yes (1)

Does the reported pKi for O=C(NCCc1nc2cnc3[nH]ccc3c2n1C1CCCCC1)C1CC1(F)F (racemic) [Example 515] fall at or above the 7 mark?
yes (1)

Does the reported pKi for CC1(n2cnc3cnc4[nH]ccc4c32)CCN(Cc2ccnc(C#N)c2)CC1 [Example 756] fall at or above the 7 mark?
no (0)

Does the reported pKi for CC(C)(C)OC(=O)N1CCCC1(C)C(=O)N1CCC(n2cnc3cnc4[nH]ccc4c32)CC1 (racemic) [Example 244] fall at or above the 7 mark?
no (0)

Does the reported pKi for Cc1nc2cnc3[nH]ccc3c2n1[C@H]1CC[C@H](NC(=O)N(C)C)CC1 [Example 604] fall at or above the 7 mark?
yes (1)

Does the reported pKi for CCn1cc(CN2CCC(n3c([C@@H](C)O)nc4cnc5[nH]ccc5c43)CC2)c(C)n1 [Example 829] fall at or above the 7 mark?
no (0)

Does the reported pKi for CC(O)c1nc2cnc3[nH]ccc3c2n1C1CC2CCC1O2 (single isomer, unassigned) [Example 936] fall at or above the 7 mark?
no (0)

---

Here the recorded Ki is given for each entry.
Tested On: JAK1 (Homo sapiens, UniProt P23458)
Construct: made in house; host or cells: SF9 insect cells (baculovirus)
Assay Procedure: JAK1 inhibition (Table 4)
Format: biochemical
Reported Conditions: read-out: JAK1 Ki
Answer format: numeric, nM implied, no suffix.

Look up Ki for this molecule: CN([C@H]1CC[C@H](n2cnc3cnc4[nH]ccc4c32)CC1)S(=O)(=O)C1CC1 [Example 341]
10.2

---

Tested On: JAK3 (Homo sapiens, UniProt P52333)
Construct: made in house; host or cells: SF9 insect cells (baculovirus)
Sequence (P52333 783-1124): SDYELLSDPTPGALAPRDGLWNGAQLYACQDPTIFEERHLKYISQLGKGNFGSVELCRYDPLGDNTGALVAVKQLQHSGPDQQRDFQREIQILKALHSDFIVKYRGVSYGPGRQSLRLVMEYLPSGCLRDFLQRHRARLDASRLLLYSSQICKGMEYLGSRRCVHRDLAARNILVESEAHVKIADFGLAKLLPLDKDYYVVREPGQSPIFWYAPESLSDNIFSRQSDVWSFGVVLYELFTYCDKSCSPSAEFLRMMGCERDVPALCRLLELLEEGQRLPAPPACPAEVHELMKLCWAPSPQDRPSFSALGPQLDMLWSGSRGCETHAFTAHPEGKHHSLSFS
Assay Procedure: JAK3 inhibition (Table 4)
Format: biochemical
Reported Conditions: read-out: JAK3 Ki
Here the recorded log10 of Ki is given for each entry.
On a log10 scale: recorded Ki, unit nM.

Examples with answers:
N#Cc1ccnc(N2CCC(n3cnc4cnc5[nH]ccc5c43)CC2)c1    2.06
Cc1nn(C)cc1CN1CCC(n2c([C@@H](C)O)nc3cnc4[nH]ccc4c32)CC1    2.98
CC(C(=O)N1CCC(n2cnc3cnc4[nH]ccc4c32)CC1)N(C)C (racemic)    3.38
Cc1noc(CN2CCC(n3c([C@@H](C)O)nc4cnc5[nH]ccc5c43)CC2)n1    0.70
C[C@@H](O)c1nc2cnc3[nH]ccc3c2n1C1CCN(Cc2cnn(C)c2)CC1    2.07

Look up log10 of Ki for this compound: `COC(=O)N[C@H]1CC[C@H](n2cnc3cnc4[nH]ccc4c32)CC1`
1.96

Look up log10 of Ki for this compound: `C[C@@H](O)c1nc2cnc3[nH]ccc3c2n1[C@H]1CC[C@H](OCC#N)CC1`
1.76

---

Tested On: TYK2 (Homo sapiens, UniProt P29597)
Sequence (P29597 873-1187): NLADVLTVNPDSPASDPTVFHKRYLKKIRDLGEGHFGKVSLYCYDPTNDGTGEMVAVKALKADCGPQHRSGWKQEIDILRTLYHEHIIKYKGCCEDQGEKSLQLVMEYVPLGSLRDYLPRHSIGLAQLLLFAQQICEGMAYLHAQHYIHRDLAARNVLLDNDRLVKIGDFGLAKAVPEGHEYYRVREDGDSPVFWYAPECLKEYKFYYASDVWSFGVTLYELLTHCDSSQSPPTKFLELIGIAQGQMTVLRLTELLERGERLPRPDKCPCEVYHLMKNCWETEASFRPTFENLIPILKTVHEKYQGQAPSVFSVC
Measured Quantity: pKi
Remember the convention: pKi equals -log10 of concentration in molar.

CC(C)NC(=O)Cc1nc2cnc3[nH]ccc3c2n1C1CCNCC1    6.17
FC(F)(F)c1nc2cnc3[nH]ccc3c2n1[C@@H]1CCCN(Cc2ccccc2)C1    5.69
N#Cc1ccc(S(=O)(=O)N2CCC(n3cnc4cnc5[nH]ccc5c43)CC2)cc1    7.19

Look up pKi for this molecule: `N#Cc1cc(CN2CCC(n3cnc4cnc5[nH]ccc5c43)CC2)ccn1`
7.10

Look up pKi for this molecule: `c1cc2c(ncc3ncn([C@H]4CC[C@H](N5CCOCC5)CC4)c32)[nH]1`
7.12

---

Tested On: JAK3 (Homo sapiens)
Construct: made in house; host or cells: SF9 insect cells (baculovirus)
Assay Procedure: JAK3 inhibition (Table 4)
Assay type: biochemical
Reported Conditions: read-out: JAK3 Ki
Here the recorded Ki is given for each entry.
Answer format: numeric, nM implied, no suffix.

Examples with answers:
C[C@@H](O)c1nc2cnc3[nH]ccc3c2n1[C@H]1CCN(Cc2cnco2)C[C@H]1F [Example 704]    12.8
Cc1nc2cnc3[nH]ccc3c2n1C1CC2CCC1C2 (stereo not shown) [Example 121]    9.31
O=C(CCC(F)(F)F)NC1CCC(n2cnc3cnc4[nH]ccc4c32)C1 (racemic) [Example 732]    16.2

Look up Ki for this compound: N#CCCN1CCC(n2cnc3cnc4[nH]ccc4c32)CC1 [Example 58]
16.4

Look up Ki for this compound: N#Cc1ccc(S(=O)(=O)N2CCC(n3cnc4cnc5[nH]ccc5c43)CC2)cc1 [Example 56]
337

Look up Ki for this compound: CC(=O)NCCc1nc2cnc3[nH]ccc3c2n1C1CCN(CCC#N)CC1 [Example 379]
26.2

Look up Ki for this compound: CC(O)c1nc2cnc3[nH]ccc3c2n1C1CCN(Cc2ccccc2)CC1 (racemic) [Example 157]
34

Look up Ki for this compound: CNc1nc2cnc3[nH]ccc3c2n1C1CCN(S(C)(=O)=O)CC1 [Example 774]
242

Look up Ki for this compound: COC(=O)N(C)[C@H]1CC[C@H](n2c(CO)nc3cnc4[nH]ccc4c32)CC1 [Example 606]
455

Look up Ki for this compound: CC(O)c1nc2cnc3[nH]ccc3c2n1C1CCN(CC(F)(F)F)CC1 (racemic) [Example 355]
41.2

Look up Ki for this compound: CCOC(=O)NCCc1nc2cnc3[nH]ccc3c2n1C1CCN(CC)CC1(F)F (single isomer, unassigned) [Example 679]
27.7

---

Tested On: JAK2 (Homo sapiens)
Construct: made in house; host or cells: SF9 insect cells (baculovirus)
Assay Procedure: JAK2 inhibition (Table 4)
Type: biochemical
Reported Conditions: read-out: JAK2 Ki
pKi: −log10 of the molar value.
Entry flag: YES if pKi reaches 8; NO if it does not.

CN1CCN(CC(=O)N2CCC(n3cnc4cnc5[nH]ccc5c43)CC2)CC1 [Example 193]    NO
CC(=O)NCCc1nc2cnc3[nH]ccc3c2n1C1CCN(CCC#N)CC1 [Example 379]    NO
Cc1nn(C)cc1S(=O)(=O)N1CCC(n2cnc3cnc4[nH]ccc4c32)CC1 [Example 448]    NO
COCC(=O)NCCc1nc2cnc3[nH]ccc3c2n1C1CCCOC1 (racemic) [Example 860]    NO
N#Cc1cc(CN2CCC(n3cnc4cnc5[nH]ccc5c43)CC2)ccn1 [Example 313]    YES

Does the reported pKi for N#CCCN1CCC(n2c(CCC3CCCO3)nc3cnc4[nH]ccc4c32)CC1 (racemic) [Example 517] fall at or above the 8 mark?
NO

Does the reported pKi for CN(C(=O)Cc1nc2cnc3[nH]ccc3c2n1C1CCN(Cc2ccccc2)CC1)C1CCCC1 [Example 101] fall at or above the 8 mark?
NO

Does the reported pKi for O=C(N[C@H]1CC[C@H](n2c(CO)nc3cnc4[nH]ccc4c32)CC1)OCC1CC1 [Example 601] fall at or above the 8 mark?
NO

Does the reported pKi for Cc1cc(CN2CCC(n3c(C(C)O)nc4cnc5[nH]ccc5c43)C(F)C2)on1 (stereo not drawn) [Example 895] fall at or above the 8 mark?
NO

---

Tested On: JAK2 (Homo sapiens, UniProt O60674)
Construct: made in house; host or cells: SF9 insect cells (baculovirus)
Assay Procedure: JAK2 inhibition (Table 4)
Type: biochemical
Reported Conditions: read-out: JAK2 Ki
Measured Quantity: pKi
Remember the convention: pKi equals -log10 of concentration in molar.

Examples with answers:
FC(F)(F)c1nc2cnc3[nH]ccc3c2n1[C@@H]1CCCNC1 [Example 301]    5.89
C[C@@H](O)c1nc2cnc3[nH]ccc3c2n1C1CCCCC1 [Example 671]    7.74
CC(CC#N)N1CCC(n2c(CNS(C)(=O)=O)nc3cnc4[nH]ccc4c32)CC1 (racemic) [Example 507]    7.40
Cc1nc2cnc3[nH]ccc3c2n1C1CCc2nc[nH]c2C1 (racemic) [Example 990]    6.69
COC[C@H]1CC[C@H](n2c(CO)nc3cnc4[nH]ccc4c32)CC1 [Example 636]    7.81

Look up pKi for this molecule: CC(C)(C)OC(=O)N1CC(c2nc3cnc4[nH]ccc4c3n2C2CCN(Cc3ccccc3)CC2)C1 [Example 161]
7.50
